The entries below come with measured IC50 values attached.
Target Entity: SIK3 (Homo sapiens, UniProt Q9Y2K2)
Construct: purchased SignalChem S12-11G-100
Sequence (Q9Y2K2 59-365 limits assumed): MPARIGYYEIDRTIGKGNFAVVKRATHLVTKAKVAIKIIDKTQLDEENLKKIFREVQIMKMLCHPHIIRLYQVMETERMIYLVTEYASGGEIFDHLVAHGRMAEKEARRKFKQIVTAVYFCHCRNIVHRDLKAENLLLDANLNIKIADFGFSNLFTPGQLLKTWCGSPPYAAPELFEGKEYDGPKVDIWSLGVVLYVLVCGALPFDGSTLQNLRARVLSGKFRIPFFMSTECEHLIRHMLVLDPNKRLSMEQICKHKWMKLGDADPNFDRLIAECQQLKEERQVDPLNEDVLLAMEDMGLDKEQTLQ
Method: ADP-Glo kinase assay, SIK3
Type: biochemical

Completed entries (count: 3):
Molecule	IC50
COc1cc(-c2cnc3cc(C4(C)CN(C)CCO4)ccn23)cc(OC(F)F)c1C(=O)NC1CC1 (centres unmarked) [Cpd 210]	10 to 100 nM
CCC(C)(O)c1ccn2c(-c3cc(OC)c(C(=O)NC4CC4)c(OC(F)F)c3)cnc2c1 (centres unmarked) [Cpd 137]	10 to 100 nM
COc1cc(-c2cnc3cc(C(C)(C)C#N)ccn23)cc(OC(F)F)c1C(=O)N1CC(O)C1 [Cpd 50]	100 to 500 nM

Turning now to a further record.
Would you mind telling me what IC50 value was observed for COc1cc(-c2cnc3cc(C(C)(C)C#N)ccn23)cc(OC(F)F)c1C(=O)N1CCN(C)CC1 [Cpd 49] ?
> 500 nM
